B1: CRYL1 (parent)
chain: RNALENIRKEMKLLEQAGSLKGSL

- Variants of: B1
- TEST_DETAILS: protein stability index of a GFP-peptide fusion (GPS, HEK-293T) (PSI 1-6); higher = more stable;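 also: lentivirally expressed fusions sorted by FACS into six bins by GFP to DsRed ratio, PSI derived from sequencing read proportions per bin multiplied by bin number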
- COND: c terminus: a fixed tail appended
Reported protein stability index is given for each of the following variants.

# VAR, protein stability index
rows = [
    ("E10W", 2.89),
    ("K9V", 3.78),
    ("Q16A", 2.93),
    ("E10H", 2.68),
    ("N2R", 3.49),
    ("G18N", 3.84),
    ("I7A", 4.35),
    ("E10A", 2.36),
    ("L4C", 4.05),
    ("A17T", 3.4),
    ("K9Y", 2.78),
    ("I7C", 2.3),
    ("N6T", 2.53),
    ("R1K", 3.77),
    ("S19F", 1.9),
    ("L24F", 3.13),
    ("S23R", 3.07),
    ("I7K", 5.08),
    ("A3L", 2.64),
    ("A17P", 3.5),
    ("R1I", 2.69),
    ("M11A", 3.4),
]
